System: MCF7 breast
assay-info: NCI-60 one-dose screen, 48 h (100 = growth as untreated, 0 = no growth, -100 = all killed)
experimental-setup: 10 µM
The panel holds about 83,000 compounds, 20% with a hit somewhere; the sample as a whole holds those more often.

[
  {
    "molecule": "COc1cc(C2C=C(c3ccc(Cl)c(Cl)c3)N=C3SC(C)=CN32)cc(OC)c1OC (centres undefined)",
    "unit-text": "%",
    "growth": 24.6
  },
  {
    "molecule": "COc1ccc(C(=O)/C=C/c2cc(-c3ccc4c(c3)OCO4)n[nH]2)cc1OC",
    "unit-text": "%",
    "growth": 27.2
  },
  {
    "molecule": "C[C@]12CC[C@H]3[C@@H](CCC4=CC(=O)CC[C@@]43C)[C@@H]1CC[C@@H]2c1csc(N)n1",
    "unit-text": "%",
    "growth": 26
  },
  {
    "molecule": "CCCCCCCCCCCCCC[n+]1ccc(C)cc1",
    "unit-text": "%",
    "growth": 0.934
  }
]
